Assay: qHTS assay to identify small molecule antagonists of the sonic hedgehog signaling (Shh) pathway (AID 1259369); further: nearly all actives have a fitted effect of over 45% in size
Conditions: NIH/3T3 Gli1-Luc reporter, Shh antagonist, luminescence 24 h; series mostly up to 92.4 µM
Results filed as inconclusive are left out. Active and inactive are the calls of the source. The call rests on the fitted dose curve.
Permitted responses: active, inactive

Query: What outcome does the record of this test show for O=C(O)c1cccc(Oc2ccccc2)c1 ?
Reply: inactive

Query: Consider next the compound CCOC(=O)c1c(N)sc2c1CCN(Cc1ccccc1)C2 in the same way.
Reply: active

Query: Repeat for the following compound: CC(=O)C(=O)CC(C)C
Reply: inactive

Query: Cool, now CC(CO)(CO)C(=O)O
Reply: inactive

* * *

Molecular target: Nuclear receptor subfamily 1 group I member 2 (Rattus norvegicus) (UniProt Q9R1A7)
Sequence (Q9R1A7 whole entry, looked up): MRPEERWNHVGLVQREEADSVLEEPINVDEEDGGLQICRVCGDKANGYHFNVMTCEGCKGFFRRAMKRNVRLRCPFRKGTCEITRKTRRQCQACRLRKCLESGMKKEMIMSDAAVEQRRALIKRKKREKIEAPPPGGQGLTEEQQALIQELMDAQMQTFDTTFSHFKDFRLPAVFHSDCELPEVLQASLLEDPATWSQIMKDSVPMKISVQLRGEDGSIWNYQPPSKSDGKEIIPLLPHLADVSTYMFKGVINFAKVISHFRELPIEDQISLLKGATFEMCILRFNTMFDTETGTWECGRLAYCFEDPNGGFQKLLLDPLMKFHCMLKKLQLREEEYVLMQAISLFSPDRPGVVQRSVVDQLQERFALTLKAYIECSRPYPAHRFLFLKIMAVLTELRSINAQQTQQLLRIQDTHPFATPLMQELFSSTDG
Test: Rat pregnane X receptor (rPXR) activation by small molecules, qHTS assay (AID 1346983); further: on the % scale 0 is the no-effect control and ±100 the full control effect; nearly all actives have a fitted effect of over 20% in size
Settings: rPXR luciferase reporter cells, One-Glo luminescence, 24 h; hits give high values
Inconclusive results are not listed.
metric: max activation (%)
I only need the number, in %, no unit after it.

Query: Can you look up max activation on Nuclear receptor subfamily 1 group I member 2 (Rattus norvegicus) (UniProt Q9R1A7) for Nc1ccc(S(=O)(=O)NCc2ccccc2)cc1 ?
Reply: -1.8

Query: Please do the same for CC(=O)OCC1=C(C(=O)O)N2C(=O)[C@@H](NC(=O)CSc3ccncc3)[C@H]2SC1 as well.
Reply: -5.99

Query: Follow-up item: CC(C)(C(=O)c1cccnc1)c1cccnc1
Reply: -1.51

Query: Subsequent entry: CCN(CC)CCOc1ccccc1C(=O)CCc1ccccc1
Reply: 4.09

Query: Follow-up entry: O=c1[nH]c2cc(C(F)(F)F)c(N3CCOCC3)cc2n(CP(=O)(O)O)c1=O
Reply: -2.81

Query: Follow-up entry: O=C1CC[C@@H](C(=O)O)N1
Reply: -5.25

Query: Same again, this time with CCN(CC)C(=O)N1CCN(C)CC1
Reply: -2.03

Query: Could you do the same for O=C(O)CNC(=O)c1ccccc1I , please?
Reply: 0.066

Query: # repeat for CCN(CC)C(=O)/C(C#N)=C/c1cc(O)c(O)c([N+](=O)[O-])c1
Reply: -6.1

Query: Please do the same for COc1ccc(C(=O)NCc2ccc(OCCN(C)C)cc2)cc1OC as well.
Reply: -0.841

Query: Again, but for CC(=O)Oc1cccc(O)c1
Reply: -5.99

Query: What do you have for CC(=O)N[C@@H](Cc1ccc(O)cc1)C(=O)O ?
Reply: -1.6

* * *

Test: Human pregnane X receptor (PXR) small molecule agonists, qHTS cell viability counter screen (AID 1346977); further: nearly all actives have a fitted effect of over 50% in size
Conditions: PXR-Luc HepG2 viability, CellTiter-Fluor, 24 h; series mostly up to 92.4 µM
Description: U.S. Tox21 Program National Center for Advancing Translational Sciences [NCATS] NIH Chemical Genomics Center [NCGC] U.S. Environmental Protection Agency [EPA] National Institutes of Environmental Health Sciences [NIEHS] National Toxicology Program [NTP] U.S. Food and Drug Administration [FDA] […]
Inconclusive results are not listed. Activity calls are given as the source filed them. Calls follow the shape of the dose curve; as a rule, active = well fitted cell-killing curve with a large enough effect in the repeat runs; inconclusive = weak or mixed curves, or effect the other way; inactive = flat fitted curve, though single readings scatter.
# valid calls are active, inactive; nothing else

Query: Hi team, can someone confirm the assay call for Cc1ccc(S(=O)(=O)NC(=O)NC2CCCCC2)cc1 ?
Reply: inactive

Query: Same question for CCN(Cc1cccc(S(=O)(=O)O)c1)c1ccc(C(=C2C=CC(=[N+](CC)Cc3cccc(S(=O)(=O)O)c3)C=C2)c2ccccc2S(=O)(=O)[O-])cc1 please.
Reply: active

Query: How about this compound: CCCCCC
Reply: inactive

Query: Here is the next compound: SCCc1cnccn1
Reply: inactive

Query: Ok, now CC1C(C)(C)C2=C(C(=O)CCC2)C1(C)C (stereo not drawn)
Reply: inactive

Query: Cool, now CCCCCCC(CO)CCCC (stereo not drawn)
Reply: inactive

Query: Entry to check: CS(=O)(=O)c1ccc([C@@H](C[C@H]2CCC(=O)C2)C(=O)Nc2cnccn2)cc1Cl
Reply: inactive

Query: Note, next up: CN(C)CC/C=C1\c2ccccc2Sc2ccc(Cl)cc21
Reply: active

Query: Then O=C(c1ccccc1)C1CCC1 ?
Reply: inactive

Query: // repeat for CC(C)Cc1ccc(CC(=O)O)cc1 and report
Reply: inactive

Query: // next record COC(CC(C)CCCC(C)(C)O)OC (stereo not drawn)
Reply: inactive

Query: Now the compound CCN(CC)CCNC(=O)c1cc(Cl)c(N)cc1OC
Reply: inactive

Query: What do we get for COC(=O)CC(C(C)=O)C(=O)OC (stereo not drawn) ?
Reply: inactive

Query: What about this compound? O=C1[C@@H]2[C@H]3CC[C@H](C3)[C@@H]2C(=O)N1CCCCN1CCN(c2ncccn2)CC1
Reply: inactive

Query: Also CC(C)(C(=O)c1cccnc1)c1cccnc1 ?
Reply: inactive

Query: Next record, please: O=C(O)CCS
Reply: inactive

Query: Follow-up entry: COc1ccc(-c2cc(C(F)F)nn2-c2ccc(S(N)(=O)=O)cc2)cc1F
Reply: inactive

Query: Another compound to check: CC(C)c1ccc(C#N)cc1
Reply: inactive

Query: How about this compound: COc1ccc(C)cc1
Reply: inactive

Query: Please answer likewise for CCCCCCCCCCCCCCCC(=O)OCC
Reply: inactive

Query: Please give the result for COc1ccc(C(=O)NCc2ccc(OCCN(C)C)cc2)cc1OC too.
Reply: inactive

Query: Also check C1CCCCC1
Reply: inactive

Query: And what about the compound Cc1cccc(C)c1NC(=O)c1cc(S(N)(=O)=O)c(Cl)cc1O ?
Reply: inactive

Query: Next compound: Oc1cccc2[nH]ccc12
Reply: inactive

Query: Also need O=S(=O)(Cl)c1c(Cl)cccc1Cl , thanks.
Reply: inactive

Query: Check CCOCCC(=O)OCC too.
Reply: inactive

Query: Also CC(CCc1ccc(O)cc1)NCCc1ccc(O)c(O)c1 (stereo not drawn) ?
Reply: inactive

Query: Now this one: CC[C@H]1OC(=O)[C@H](C)[C@@H](O[C@H]2C[C@@](C)(OC)[C@@H](O)[C@H](C)O2)[C@H](C)[C@@H](O[C@@H]2O[C@H](C)C[C@H](N(C)C)[C@H]2O)[C@](C)(O)C[C@@H](C)C(=O)[C@H](C)[C@@H](O)[C@]1(C)O
Reply: inactive

Query: CC1CCCO1 (stereo not drawn) , same question.
Reply: inactive

Query: Then O=C(O)c1cccc(C[C@@H]2COc3ccc(OCc4nc5cc(F)ccc5s4)cc3[C@@H]2O)c1 ?
Reply: inactive

Query: Quick one: CC(=O)OCC1=C(C(=O)O)N2C(=O)[C@@H](NC(=O)CSc3ccncc3)[C@H]2SC1
Reply: inactive

Query: Next up: Nc1ccc(N=Nc2ccc(N)cc2)cc1
Reply: active

Query: Next record, please: CCC(C)(C)C(=O)O
Reply: inactive

* * *

Biological target: Cytochrome P450 3A4 (Homo sapiens)
Assay: Cytochrome P450 Family 3 Subfamily A Member 4 (CYP3A4) small molecule antagonists: luciferase reporter qHTS assay (AID 1671201); further: nearly all actives have a fitted effect of over 50% in size
Conditions: P450-Glo CYP3A4 enzyme, luciferin luminescence, 1 h; series mostly up to 115 µM
Inconclusive results are not listed. Calls of active or inactive are those of the source. Calls follow the shape of the dose curve; as a rule, active = well fitted inhibition curve with a large enough effect in the repeat runs; inconclusive = weak or mixed curves; inactive = no such curve, though single readings can be large or run the other way.
Your reply should match one of these outcome classes. true (1) (active), false (0) (inactive)

Query: Test call, this compound: O=C(CCS)OCC(COC(=O)CCS)(COC(=O)CCS)COC(=O)CCS
Reply: true (1)

Query: Similarly, CCN(CC)CCNC(=O)c1cc(Cl)c(N)cc1OC ?
Reply: false (0)

Query: Same read-out for C=C(C)C(=O)OCCC(F)(F)C(F)(F)C(F)(F)C(F)(F)C(F)(F)C(F)(F)F ?
Reply: false (0)

Query: Now consider CC1CCCC(=O)C1=O (configuration not stated) .
Reply: false (0)

Query: Check [Cl][Nd]([Cl])[Cl] too.
Reply: false (0)

Query: Request: O=C(O)CO
Reply: false (0)

Query: Entry to check: O=C(O)CCS
Reply: false (0)

Query: Entry to check: O=C(O)/C=C/c1ccc(O)c(O)c1
Reply: false (0)

Query: Please do the same for CC(C(=O)O)c1ccc(C(=O)c2cccs2)cc1 (configuration not stated) as well.
Reply: false (0)

Query: Lookup c1ccc(CCCc2ccncc2)cc1
Reply: true (1)

Query: Another: O=C(O)CCCc1c[nH]c2ccccc12
Reply: false (0)

Query: Next up: CC1=C2[C@@H]([C@H](C)CC[C@H]2/C=C(\C)C(=O)O)[C@H](O)C1
Reply: false (0)

Query: Also, CC(=O)OCC(C)C please.
Reply: false (0)

Query: Now the compound COC(OC)OC
Reply: false (0)

Query: Now consider Cc1cccc2sc(N)nc12 .
Reply: false (0)

Query: Request: BrC(Br)C(Br)Br
Reply: false (0)

Query: Repeat for the following compound: COc1cc(NS(=O)(=O)c2ccc(N)cc2)nc(C)n1
Reply: false (0)

Query: Please give the result for CCCCCCCC(=O)Oc1c(Br)cc(C#N)cc1Br too.
Reply: false (0)

Query: Further, for COc1ccc(C)cc1 ?
Reply: false (0)

Query: Same lookup for CSSc1ccoc1C , please.
Reply: false (0)

Query: Also CC(C)(O)c1coc(S(=O)(=O)NC(=O)Nc2c3c(cc4c2CCC4)CCC3)c1 , if possible.
Reply: true (1)

Query: Please answer likewise for CCOC(=O)N1CCC(Nc2ccc(Cl)cc2N)CC1
Reply: false (0)

Query: # iterate: NC(=O)c1ccccc1[N+](=O)[O-]
Reply: false (0)

Query: Now consider CC1CCC(C(C)CS)CC1S (configuration not stated) .
Reply: true (1)

Query: // next record CC(C)(C)CCCCCCOC(=O)c1ccccc1C(=O)OCCCCCCC(C)(C)C
Reply: false (0)

Query: Proceed to Cc1cccc(C)c1NC(=O)c1cc(S(N)(=O)=O)c(Cl)cc1O
Reply: false (0)

Query: Would you kindly repeat that for CCC1CCC(CCC(=O)O)C1 (configuration not stated) ?
Reply: false (0)
